Provenance of the data: patent US20220153839A1

- SYSTEM_TESTED: T1, Ig (human, UniProt Q01973)
- T1 construct: Ig domain of the extracellular domain; also called hFc-hROR1-Ig
- TEST_DETAILS: ELISA on directly coated hFc fusion proteins of hROR1 domains; anti-His-HRP; A405
MEASURE_NAME: binding result

Past entries and their recorded results:
* ERR1-316 chimeric rabbit/human Fab (Fab, V domains shown, Chimeric rabbit/human Fab with His tag, expressed in E. coli (pET11a); lambda light chain) VH: QEQLEESGGRLVTPGTPLTLTCTASGFFLSSYYVSWVRQAPGKGLEWIGAIGTGGSAYYASWAKSRSTITRNTNLSTVTLKMTSLTAADTATYFCARDHPNYGMDLWGPGTLVTVSS VL: SYELTQLPSVSVSLGQTARITCGGNSIGSKAVNWYQQKPGLAPGLLIYDDDERPSGVPDRFSGSNSGDTATLTISGAQAGDEADYYCQLWDSSTGAYAFGGGTQLTVTG | no binding
* XBR1-402 chimeric rabbit/human Fab (Fab, V domains shown, Chimeric rabbit/human Fab with His tag, expressed in E. coli (pC3C-His); lambda light chain) VH: QEQQKESGGGLFKPTDTLTLTCTASGFDISSYYMSWVRQAPGNGLEWIGAIGISGNAYYASWAKSRSTITRNTNLNTVTLKMTSLTAADTATYFCARDHPTYGMDLWGPGTLVTVSS VL: SYELTQLPSVSVSLGQTARITCEGNNIGSKAVHWYQQKPGLAPGLLIYDDDERPSGVPDRFSGSNSGDTATLTISGAQAGDEADYYCQVWDSSAYVFGGGTQLTVTG | no binding
* ERR1-TOP15 chimeric rabbit/human Fab (Fab, V domains shown, Chimeric rabbit/human Fab with His tag, expressed in E. coli (pET11a); lambda light chain) VH: QEQLVESGGRLVTPGGSLTLTCAASGFSPSSYWMSWVRQAPGKGLEWIGAIYVDSGSAYYASWAKSRFTISKTSSTTVDLKMTSLTTEDTAIYFCARDGWGSDVWGPGTLVTISS VL: SYELTQLPSVSVSLGQTARITCGGNSIGSKAVHWYQQKPGLAPGLLIYDDDERPSGVPDRFSGSNSGDTATLTISGAQAGDEADYYCQLWDSSAGAYVFGGGTQLTVTG | no binding
* ERR1-TOP22 chimeric rabbit/human Fab (Fab, V domains shown, Chimeric rabbit/human Fab with His tag, expressed in E. coli (pET11a); lambda light chain) VH: QSLEESGGRLVTPGTPLTLTCTVSGFSLSSYYMSWVRQAPGKGLEWIGTISSSGSTYYASWVKGRFTISKTSTTVDLKMTSLTTEDTATYFCARDLDYDMDLWGPGTLVTVSS VL: SYELTQLPSVSVSLGQTARITCGGNSIGSKAVHWYQQKPGLAPGLLIYNDDERPSGVPDRFSGSNSGDTATLTISGAQAGDEADYYCQLWDNNAAVFGGGTQLTVTG | no binding
* ERR1-TOP4 chimeric rabbit/human Fab (Fab, V domains shown, Chimeric rabbit/human Fab with His tag, expressed in E. coli (pET11a); lambda light chain) VH: QSVEESGGRLVTPGTPLTLTCTASGIDLSRYAVNWVRQAPGKGLEWIGVISGSGTTYYASWAKGRFTISKTSTTVDLKITSPTTEDTATYFCARGWATDGIFDYDDTFNLWGPGTLVTVSS VL: SYELTQLPSVSVSLGQTARITCGGDSIESKAVHWYQQKPGLAPGLLVYNDDERPSGVPDRFSGSNSGDTATLTISGAQAGDEADYYCQLWDGSAYVFGGGTQLTVTG | no binding

Given the entry ERR1-301 chimeric rabbit/human Fab (Fab, V domains shown, Chimeric rabbit/human Fab with His tag, expressed in E. coli (pET11a); lambda light chain) VH: QEQLEESGGGLVTPGGSLTLTCTASGFTISTYHMSWVRQAPGKGLEWIGSIYAGSGSTYYASWVNGRFTISSNTTQNTVSLQMNSLTVADTATYFCARDHPSYGMDLWGPGTLVTVSS VL: SYELTQLPSVSVSLGQTARITCGGNSIGSKAVNWYQQKPGLAPGLLIYDDDERPSGVPDRFSASNSGDTATLTISGAQAEDEADYYCQLWDSSAVAYVFGGGTQLTVTG , report its measured binding result.
no binding
